Hi there, I'd appreciate the recorded IC50 for every entry that follows.
molecular target: human TRPA1 (Homo sapiens); construct: expressed in transfected cells; assay: Cell-based functional intracellular calcium ([Ca2+]i) assay, Fluo-4/Fluo-8, FlexStation, challenge with reference TRPA1 agonist (FFA, AITC or 4-HNE); conditions: HEK293 cells expressing human TRPA1; IC50 class after addition of reference TRPA1 agonist (FFA, AITC or 4-HNE); read-out: human TRPA1-HEK Activity
Sequence (O75762 whole entry): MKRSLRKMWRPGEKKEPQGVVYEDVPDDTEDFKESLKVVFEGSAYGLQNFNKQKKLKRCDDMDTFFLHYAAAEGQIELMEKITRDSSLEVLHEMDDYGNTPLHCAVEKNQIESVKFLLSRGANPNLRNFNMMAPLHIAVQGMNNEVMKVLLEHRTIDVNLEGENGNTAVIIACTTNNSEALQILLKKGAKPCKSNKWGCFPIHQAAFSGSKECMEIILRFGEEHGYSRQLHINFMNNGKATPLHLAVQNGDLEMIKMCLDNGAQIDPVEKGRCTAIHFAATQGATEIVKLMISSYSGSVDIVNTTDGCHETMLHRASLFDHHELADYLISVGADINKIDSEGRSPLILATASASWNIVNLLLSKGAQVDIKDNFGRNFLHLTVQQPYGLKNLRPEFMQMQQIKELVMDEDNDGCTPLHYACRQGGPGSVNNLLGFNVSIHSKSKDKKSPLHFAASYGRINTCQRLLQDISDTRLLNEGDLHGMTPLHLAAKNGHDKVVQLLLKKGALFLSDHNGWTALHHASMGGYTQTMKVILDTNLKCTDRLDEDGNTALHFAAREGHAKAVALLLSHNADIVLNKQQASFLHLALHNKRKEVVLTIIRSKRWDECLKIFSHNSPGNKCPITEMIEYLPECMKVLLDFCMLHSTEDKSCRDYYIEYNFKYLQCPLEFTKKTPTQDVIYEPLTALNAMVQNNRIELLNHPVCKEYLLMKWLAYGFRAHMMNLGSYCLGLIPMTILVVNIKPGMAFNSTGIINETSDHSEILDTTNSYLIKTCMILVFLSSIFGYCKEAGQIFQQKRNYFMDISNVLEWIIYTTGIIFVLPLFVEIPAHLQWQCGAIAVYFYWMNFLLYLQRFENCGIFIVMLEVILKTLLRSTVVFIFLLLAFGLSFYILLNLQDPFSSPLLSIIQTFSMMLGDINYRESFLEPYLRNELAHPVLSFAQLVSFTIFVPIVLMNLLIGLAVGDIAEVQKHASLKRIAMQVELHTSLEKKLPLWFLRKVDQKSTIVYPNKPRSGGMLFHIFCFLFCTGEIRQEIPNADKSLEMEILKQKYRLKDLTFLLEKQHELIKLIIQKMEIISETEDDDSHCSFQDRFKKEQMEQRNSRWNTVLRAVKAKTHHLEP

The molecule listed as O=C(c1cc(-c2ccncc2)n(-c2ccc(C(F)(F)F)cc2)n1)N1CCC(N2C(=O)OC[C@H]2c2ccccc2)CC1 has a reported IC50 of > 25 µM

The molecule listed as O=C1Nc2cc(F)c(F)cc2C2(CCN(C(=O)c3cc(-c4cccnc4)n(-c4ccc(F)c(C(F)(F)F)c4)n3)CC2)O1 has a reported IC50 of 0.001 to 5 µM

The molecule listed as O=C(c1cc(-c2ccncc2)n(-c2ccc(C(F)(F)F)cc2)n1)N1CCC2(CC1)C(=O)NCN2c1ccccc1 has a reported IC50 of 5 to 25 µM

The molecule listed as O=C(Nc1ccc2c(c1)COC2=O)c1cc(-c2ccncc2)n(-c2ccc(C(F)(F)F)cc2)n1 has a reported IC50 of 5 to 25 µM
